# System: lactate dehydrogenase (LDH)
# Test method notes: ELISA analysis of phage on LDH (irrelevant, non-specific target)
# Type: binding
# Stated conditions: peptide binding to LDH polypeptide (non-specific binding); phage ELISA units read at 405 nm
Readout type: LDH (OD)

{"columns": ["Sequence content", "LDH (OD)"],
 "data": [
  ["TPVAISIPAGVCSTSVCGRD (DGI-2-20F-PP-C11; listed as Escherichia coli)", 0.9],
  ["MQAASTLSTYMGAIRMGYPILHWDRGGVQRVDPGLYRGRV (DGI-2-40F-3-B10; listed as Escherichia coli)", 1.0],
  ["TIDVARRFGYGWWDLWLDGD (DGI-2-20R-3-C3; listed as Escherichia coli)", 1.1],
  ["RDTTSQWSWISRGWEFPGWR (DGI-2-20R-3-C2; listed as Escherichia coli)", 1.1],
  ["ACSVGTALVFPQRWWYLGRS (DGI-2-20R-3-D6; listed as Escherichia coli) [DGL-2-20R-3-D6]", 1.1],
  ["QVGGMTQVGATVLSVVTGRGSCDGEDAWYPPGVTVGLGLC (DGI-2-40F-4-F97; listed as Escherichia coli)", 1.0],
  ["GWSDFVATGSWSGQVSAALN (DGI-2-20R-4-F120; listed as Escherichia coli)", 1.1],
  ["SLECWAMPGMVVRLVGCDGP (DGI-2-20R-4-H112; listed as Escherichia coli)", 1.1]
]}
